test target: recombinant human 5HT6 receptor (Homo sapiens, UniProt P50406)
Construct: purchased Receptor Biology; host or cells: HEK-293
Sequence (P50406 whole entry): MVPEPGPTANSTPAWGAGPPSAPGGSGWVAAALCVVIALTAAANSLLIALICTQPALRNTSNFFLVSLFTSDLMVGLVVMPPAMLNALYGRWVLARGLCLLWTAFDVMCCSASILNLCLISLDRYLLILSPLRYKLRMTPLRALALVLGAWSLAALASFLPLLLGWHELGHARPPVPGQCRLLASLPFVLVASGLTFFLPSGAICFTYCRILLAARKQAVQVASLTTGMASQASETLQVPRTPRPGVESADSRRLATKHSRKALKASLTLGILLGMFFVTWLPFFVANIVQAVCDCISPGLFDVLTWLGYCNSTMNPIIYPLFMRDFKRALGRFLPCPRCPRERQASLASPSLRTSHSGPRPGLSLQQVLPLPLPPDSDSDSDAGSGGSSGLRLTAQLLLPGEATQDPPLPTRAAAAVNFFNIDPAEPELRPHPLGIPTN
test details: Binding to the 5HT6 serotonin receptor ([3H]-LSD, HEK-293 cell membranes)
Attribute: pKi
Lab note: report pKi as minus log10 of the concentration in molar units, number only.

| molecule | pKi |
| --- | --- |
| Cc1c(S(=O)(=O)N2CCC(N3C(=O)OCc4ccccc43)CC2)sc2ccc(Cl)cc12 [Example 3b] | 6.97 |

# input Enter reported pKi observed with recombinant human 5HT6 receptor (Homo sapiens, UniProt P50406) for O=C1OCc2ccccc2N1C1CCN(S(=O)(=O)c2cccc3cccnc23)CC1 [Example 5b]
# output 6.82

# input # repeat for Cc1cccc2c1N(C1CCN(S(=O)(=O)c3cccc4ccccc34)CC1)C(=O)OC2 [Example 4b]
# output 6.61

----------
Attribute: pKi
test target: recombinant human 5HT6 receptor (Homo sapiens, UniProt P50406)
Construct: purchased Receptor Biology; host or cells: HEK-293
test details: Binding to the 5HT6 serotonin receptor ([3H]-LSD, HEK-293 cell membranes)
test conditions: table 1f, compounds of general formula (If)
Lab note: report pKi as minus log10 of the concentration in molar units, number only.

Before answering, review these 5 worked examples.
| smiles str | pKi |
| --- | --- |
| CN(C)CCn1ccc2ccc(NS(=O)(=O)c3cccc4ccccc34)cc21 | 7.70 |
| CN(C)CCn1ccc2ccc(NS(=O)(=O)c3ccc(Oc4ccccc4)cc3)cc21 | 6.93 |
| CN(C)CCn1ccc2ccc(NS(=O)(=O)c3cc(Cl)cc(Cl)c3)cc21 | 6.80 |
| Cc1c(S(=O)(=O)Nc2ccc3ccn(CCN(C)C)c3c2)sc2ccc(Cl)cc12 | 7.04 |
| CN(C)CCn1ccc2ccc(NS(=O)(=O)CCc3cccc4ccccc34)cc21 | 7.13 |

Attention now turns to another entry.
# input Enter reported pKi observed with recombinant human 5HT6 receptor (Homo sapiens, UniProt P50406) for `CN(C)CCn1ccc2ccc(NS(=O)(=O)c3c(Cl)nc4sccn34)cc21`
# output 7.26

----------
test target: recombinant human 5HT6 receptor (Homo sapiens, UniProt P50406)
Construct: purchased Receptor Biology; host or cells: HEK-293
test details: Binding to the 5HT6 serotonin receptor ([3H]-LSD, HEK-293 cell membranes)
test conditions: table 1e, compounds of general formula (Ie)
Attribute: pKi
Lab note: report pKi as minus log10 of the concentration in molar units, number only.

Before answering, review these 2 worked examples.
| compound | pKi |
| --- | --- |
| CN(C)CCn1ccc2cc(NS(=O)(=O)c3cccc4c(Cl)cccc34)ccc21 [Example 4e] | 6.95 |
| CN(C)CCn1ccc2cc(NS(=O)(=O)c3c(Cl)nc4sccn34)ccc21 [Example 11e] | 8.72 |

Attention now turns to another entry.
# input Enter reported pKi observed with recombinant human 5HT6 receptor (Homo sapiens, UniProt P50406) for CN(C)CCn1ccc2cc(NS(=O)(=O)c3cccc4ccccc34)ccc21 [Example 3e]
# output 7.03

----------
test target: recombinant human 5HT6 receptor (Homo sapiens)
Construct: purchased Receptor Biology; host or cells: HEK-293
test details: Binding to the 5HT6 serotonin receptor ([3H]-LSD, HEK-293 cell membranes)
Counter-ions that a name gives are not always drawn.
assay endpoint: pKi
Lab note: report pKi as minus log10 of the concentration in molar units, number only.

Before answering, review these 2 worked examples.
| compound | assay result |
| --- | --- |
| CN(C)CCn1ccc2ccc(NS(=O)(=O)c3ccc4ccccc4c3)cc21 | 7.39 |
| O=C1OCc2ccccc2N1C1CCN(S(=O)(=O)c2cccc3ccccc23)CC1 | 7.29 |

Attention now turns to another entry.
# input I would be grateful if you could share the reported pKi for CN1CCC(c2c[nH]c3ccc(NS(=O)(=O)c4cccc5ccccc45)cc23)CC1 [Example 13c, hydrochloride] .
# output 8.33
